experimentalContext: 298.15 K; 101.33 kPa; Liquid; Capillary tube (Ostwald / Ubbelohde) method
assayEndpoint: viscosity (mPa·s)

Reference set (2 entries):
| compound | measurementUnit | viscosity |
| --- | --- | --- |
| CCCCCCCO | mPa·s | 5.886 |
| CO | mPa·s | 0.5444 |

A = CCCCCO
B = COCC(C)OCC(C)OC (stereo not given)
Of the two listed items, which has the higher viscosity? First: A Second: B State your choice using its label. A
(A: 3.495 mPa·s, B: 0.9926 mPa·s)

---

experimentalContext: 298.15 K; 101.33 kPa; Liquid
assayEndpoint: mass density (kg/m3)

| compound | mass density / kg/m3 |
| --- | --- |
| CCCCCCCO [heptan-1-ol] | 818.851 |
| CO [methanol] | 786.548 |
| CCCCCO [pentan-1-ol] | 811.001 |
| COCC(C)OCC(C)OC (stereo not given) [2-methoxy-1-(2-methoxy-1-methylethoxy)propane] | 898.566 |
| CCCO [propan-1-ol] | 799.666 |

---

experimentalContext: 298.15 K; 101.33 kPa; Liquid; Sing-around technique in a fixed-path interferometer
assayEndpoint: speed of sound (m/s)

| compound | speed of sound (m/s) |
| --- | --- |
| CCCCCO [pentan-1-ol] | 1276 |
| COCC(C)OCC(C)OC (stereo not given) [2-methoxy-1-(2-methoxy-1-methylethoxy)propane] | 1205 |
| CCCCCCCO [heptan-1-ol] | 1327.4 |
| CO [methanol] | 1102.6 |
| CCCO [propan-1-ol] | 1206.5 |
